- Tested on: DMS-114 complex spheroids with HUVEC/MSC, growth % test/control
- TEST SUMMARY: Anticancer human tumor DMS-114 cell line growth inhibition [AhR]
- CONDITION DESCRIPTION: second compound 10 µM; first compound 0.316 µM; hits give low values
ENDPOINT LABEL: viability, T/C (%)
One number for each entry, in %.

Example compounds with recorded viability, T/C:
[[record]]
compound = "COc1ccc([C@@H](O)c2cc(-c3ncnc4cc(N5CCOCC5)ccc34)c(F)cc2Cl)nn1 + Cc1cncc(-c2nc(NCCc3c[nH]c4ccccc34)c3ncn(C(C)C)c3n2)c1"
endpoint_label = "viability, T/C"
result_number = 29.7

[[record]]
compound = "COc1ccc([C@@H](O)c2cc(-c3ncnc4cc(N5CCOCC5)ccc34)c(F)cc2Cl)nn1 + Cc1ccccc1N=Nc1ccc(NC(=O)c2ccnn2C)c(C)c1"
endpoint_label = "viability, T/C"
result_number = 90.8


Here is the next item to consider.
Query: Value lookup for viability, T/C; key = Nc1ccn(C2OC(CO)C(O)C2(F)F)c(=O)n1 (stereo not drawn) + Cc1ccccc1N=Nc1ccc(NC(=O)c2ccnn2C)c(C)c1
Reply: 29.4

---

- System: DMS-114 complex spheroids with HUVEC/MSC, growth % test/control
- TEST SUMMARY: Anticancer human tumor DMS-114 cell line growth inhibition [AhR];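 also: spheroids exposed to agents for 7 days before readout; 100% = DMSO vehicle control wells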
- CONDITION DESCRIPTION: second compound 3.16 µM; first compound 0.00949 µM; hits give low values
Consider the following molecules; for each one, report its viability, T/C.
Give bare numbers, in %.

[[record]]
molecule = "CCc1c2c(nc3ccc(O)cc13)-c1cc3c(c(=O)n1C2)COC(=O)[C@]3(O)CC + CC(CO)NC(=O)c1cc(-c2ccc(Cl)cc2)nn(-c2cnn(C)c2)c1=O"
endpoint_label = "viability, T/C"
result_number = 20.7


Look up viability, T/C for the entries below, preserving their order.
1. O=C(C=Cn1cnc(-c2cc(C(F)(F)F)cc(C(F)(F)F)c2)n1)NNc1cnccn1 + Cc1ccccc1N=Nc1ccc(NC(=O)c2ccnn2C)c(C)c1
2. CC(C)CC(NC(=O)C(Cc1ccccc1)NC(=O)c1cnccn1)B(O)O (stereo not drawn) + Cc1ccccc1N=Nc1ccc(NC(=O)c2ccnn2C)c(C)c1

Reply:
1: 99.7; 2: 23.4

Look up viability, T/C for the entries below, preserving their order.
1. CCN(c1cc(-c2ccc(CN3CCOCC3)cc2)cc(C(=O)NCc2c(C)cc(C)[nH]c2=O)c1C)C1CCOCC1 + Cc1cncc(-c2nc(NCCc3c[nH]c4ccccc34)c3ncn(C(C)C)c3n2)c1
2. O=C(C=Cn1cnc(-c2cc(C(F)(F)F)cc(C(F)(F)F)c2)n1)NNc1cnccn1 + Cc1cncc(-c2nc(NCCc3c[nH]c4ccccc34)c3ncn(C(C)C)c3n2)c1
3. Nc1ncn(C2CC(O)C(CO)S2)c(=O)n1 (stereo not drawn) + CC(CO)NC(=O)c1cc(-c2ccc(Cl)cc2)nn(-c2cnn(C)c2)c1=O
4. CC(C)CC(NC(=O)C(Cc1ccccc1)NC(=O)c1cnccn1)B(O)O (stereo not drawn) + Cc1cncc(-c2nc(NCCc3c[nH]c4ccccc34)c3ncn(C(C)C)c3n2)c1

Reply:
1. 99.3
2. 94
3. 115
4. 0.87

Look up viability, T/C for the entries below, preserving their order.
1. CCc1c2c(nc3ccc(O)cc13)-c1cc3c(c(=O)n1C2)COC(=O)[C@]3(O)CC + Cc1ccccc1N=Nc1ccc(NC(=O)c2ccnn2C)c(C)c1
2. O=C(C=Cn1cnc(-c2cc(C(F)(F)F)cc(C(F)(F)F)c2)n1)NNc1cnccn1 + CC(CO)NC(=O)c1cc(-c2ccc(Cl)cc2)nn(-c2cnn(C)c2)c1=O
3. CCN(c1cc(-c2ccc(CN3CCOCC3)cc2)cc(C(=O)NCc2c(C)cc(C)[nH]c2=O)c1C)C1CCOCC1 + CC(CO)NC(=O)c1cc(-c2ccc(Cl)cc2)nn(-c2cnn(C)c2)c1=O

Reply:
1: 52.5; 2: 97.1; 3: 118

Look up viability, T/C for the entries below, preserving their order.
1. CCN(c1cc(-c2ccc(CN3CCOCC3)cc2)cc(C(=O)NCc2c(C)cc(C)[nH]c2=O)c1C)C1CCOCC1 + Cc1ccccc1N=Nc1ccc(NC(=O)c2ccnn2C)c(C)c1
2. CCc1c2c(nc3ccc(O)cc13)-c1cc3c(c(=O)n1C2)COC(=O)[C@]3(O)CC + Cc1cncc(-c2nc(NCCc3c[nH]c4ccccc34)c3ncn(C(C)C)c3n2)c1

Reply:
1: 108; 2: 15

Query: Value lookup for viability, T/C; key = Nc1ncn(C2CC(O)C(CO)S2)c(=O)n1 (stereo not drawn) + Cc1ccccc1N=Nc1ccc(NC(=O)c2ccnn2C)c(C)c1
Reply: 96.9

---

- Tested on: DMS-114 complex spheroids with HUVEC/MSC, growth % test/control
- TEST SUMMARY: Anticancer human tumor DMS-114 cell line growth inhibition [AhR];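 also: spheroids exposed to agents for 7 days before readout; 100% = DMSO vehicle control wells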
- CONDITION DESCRIPTION: second compound 1 µM; first compound 0.0316 µM; hits give low values
Consider the following compounds; for each one, report its viability, T/C.
Answers are plain numbers, in %.

Example compounds with recorded viability, T/C:
[[record]]
compound = "O=C(C=Cc1cccc(S(=O)(=O)Nc2ccccc2)c1)NO + CC(CO)NC(=O)c1cc(-c2ccc(Cl)cc2)nn(-c2cnn(C)c2)c1=O"
endpoint_label = "viability, T/C"
result_number = 84.6

[[record]]
compound = "CC1COCCN1c1cc(C2(S(C)(=N)=O)CC2)nc(-c2ccnc3[nH]ccc23)n1 (stereo unspecified) + Cc1cncc(-c2nc(NCCc3c[nH]c4ccccc34)c3ncn(C(C)C)c3n2)c1"
endpoint_label = "viability, T/C"
result_number = 122

[[record]]
compound = "O=C(c1cc(Cc2n[nH]c(=O)c3ccccc23)ccc1F)N1CCN(C(=O)C2CC2)CC1 + CC(CO)NC(=O)c1cc(-c2ccc(Cl)cc2)nn(-c2cnn(C)c2)c1=O"
endpoint_label = "viability, T/C"
result_number = 108

[[record]]
compound = "Nc1ncn(C2CC(O)C(CO)O2)c(=O)n1 (stereo unspecified) + Cc1cncc(-c2nc(NCCc3c[nH]c4ccccc34)c3ncn(C(C)C)c3n2)c1"
endpoint_label = "viability, T/C"
result_number = 81.5

[[record]]
compound = "O=C(c1cc(Cc2n[nH]c(=O)c3ccccc23)ccc1F)N1CCN(C(=O)C2CC2)CC1 + Cc1ccccc1N=Nc1ccc(NC(=O)c2ccnn2C)c(C)c1"
endpoint_label = "viability, T/C"
result_number = 113


Here is the next item to consider.
Query: Value lookup for viability, T/C; key = Nc1ccccc1NC(=O)c1ccc(CNC(=O)OCc2cccnc2)cc1 + Cc1ccccc1N=Nc1ccc(NC(=O)c2ccnn2C)c(C)c1
Reply: 91.8

---

- System: DMS-114 complex spheroids with HUVEC/MSC, growth % test/control
- TEST SUMMARY: Anticancer human tumor DMS-114 cell line growth inhibition [AhR];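 also: spheroids exposed to agents for 7 days before readout; 100% = DMSO vehicle control wells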
- CONDITION DESCRIPTION: second compound 1 µM; first compound 0.0316 µM; hits give low values
ENDPOINT LABEL: viability, T/C (%)
Answers are plain numbers, in %.

Example molecules with recorded viability, T/C:
[[record]]
molecule = "NS(=O)(=O)OCC1CC(n2ccc3c(NC4CCc5ccccc54)ncnc32)CC1O (stereo not given) + Cc1ccccc1N=Nc1ccc(NC(=O)c2ccnn2C)c(C)c1"
target = "DMS-114 complex spheroids with HUVEC/MSC, growth % test/control"
units_symbol = "%"
result_number = 119

[[record]]
molecule = "COc1ccc([C@@H](O)c2cc(-c3ncnc4cc(N5CCOCC5)ccc34)c(F)cc2Cl)nn1 + Cc1cncc(-c2nc(NCCc3c[nH]c4ccccc34)c3ncn(C(C)C)c3n2)c1"
target = "DMS-114 complex spheroids with HUVEC/MSC, growth % test/control"
units_symbol = "%"
result_number = 98.7

[[record]]
molecule = "COc1ccc([C@@H](O)c2cc(-c3ncnc4cc(N5CCOCC5)ccc34)c(F)cc2Cl)nn1 + CC(CO)NC(=O)c1cc(-c2ccc(Cl)cc2)nn(-c2cnn(C)c2)c1=O"
target = "DMS-114 complex spheroids with HUVEC/MSC, growth % test/control"
units_symbol = "%"
result_number = 92


Look up viability, T/C for the entries below, preserving their order.
1. COc1ccc([C@@H](O)c2cc(-c3ncnc4cc(N5CCOCC5)ccc34)c(F)cc2Cl)nn1 + Cc1ccccc1N=Nc1ccc(NC(=O)c2ccnn2C)c(C)c1
2. CC1(C)CCC(CN2CCN(c3ccc(C(=O)NS(=O)(=O)c4ccc(NCC5CCOCC5)c([N+](=O)[O-])c4)c(Oc4cnc5[nH]ccc5c4)c3)CC2)=C(c2ccc(Cl)cc2)C1 + Cc1cncc(-c2nc(NCCc3c[nH]c4ccccc34)c3ncn(C(C)C)c3n2)c1

Reply:
[96.6, 102]

---

- Tested on: DMS-114 complex spheroids with HUVEC/MSC, growth % test/control
- TEST SUMMARY: Anticancer human tumor DMS-114 cell line growth inhibition [AhR];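 also: spheroids exposed to agents for 7 days before readout; 100% = DMSO vehicle control wells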
- CONDITION DESCRIPTION: second compound 1 µM; first compound 0.03 µM; hits give low values
- Excerpt: Multicellular complex tumor spheroid response to aryl hydrocarbon receptor antagonists in combination with a variety of drugs and investigational agents in selected tumor cell lines […] Compounds. […] If the clinical Cmax for an agent had not been determined, the highest concentration tested was 10 microM (Table 1). […]
ENDPOINT LABEL: viability, T/C (%)
Give bare numbers, in %.

Example compounds with recorded viability, T/C:
[[record]]
compound = "CCN(c1cc(-c2ccc(CN3CCOCC3)cc2)cc(C(=O)NCc2c(C)cc(C)[nH]c2=O)c1C)C1CCOCC1 + Cc1cncc(-c2nc(NCCc3c[nH]c4ccccc34)c3ncn(C(C)C)c3n2)c1"
target = "DMS-114 complex spheroids with HUVEC/MSC, growth % test/control"
units_symbol = "%"
result_number = 101

[[record]]
compound = "Nc1ncn(C2CC(O)C(CO)S2)c(=O)n1 (stereo not drawn) + CC(CO)NC(=O)c1cc(-c2ccc(Cl)cc2)nn(-c2cnn(C)c2)c1=O"
target = "DMS-114 complex spheroids with HUVEC/MSC, growth % test/control"
units_symbol = "%"
result_number = 102


Query: Missing value: viability, T/C, DMS-114 complex spheroids with HUVEC/MSC, growth % test/control, entry CC(C)CC(NC(=O)C(Cc1ccccc1)NC(=O)c1cnccn1)B(O)O (stereo not drawn) + Cc1cncc(-c2nc(NCCc3c[nH]c4ccccc34)c3ncn(C(C)C)c3n2)c1 . Fill in?
Reply: 0.45
